Listing of entries alongside the reported pIC50.
# target: T1, EGFR expressed on A431 cells (human, UniProt P00533 25-1210)
# T1 construct: whole, on cells; The assay text gives no species; also called epidermal growth factor receptor
# assayText: EGFR binding assay: inhibition of biotinylated EGF binding to A431 cells; lowest value obtained
pIC50: −log10 of the molar value.

[
  {
    "binder": "DOM16-39-100 (other) VL: DIQMTQSPSSLSASVGDRVTITCRASQWIGILVDWYQQKPGEAPKLLIYYASFLQSGVPSRFSGSGFGTDFTLTISSLHPEDFATYYCQQANPAPLTFGQGTKVEIKR",
    "pIC50": "8.56 to 9.00"
  },
  {
    "binder": "DOM16-39-87 (other) VL: DIQMTQSPSSLSASVGDRVTITCRASQWIGILVDWYQQKPGEAPKLLIYYASFLQSGVPSRFSGSGSGTDFTLTISSLQPEDFATYYCQQANPAPLRFGQGTKVEIKR",
    "pIC50": "7.98 to 8.35"
  },
  {
    "binder": "DOM16-39-115 (other) VL: DIQMTQSPSSLSASVGDRVTITCRASQWIGILLDWYQQKPGEAPKLLIYYASFLQSGVPSRFSGSGYGTDFTLTISSLQPEDFATYYCQQANPAPLTFGQGTKVEIKR",
    "pIC50": "8.16 to 8.96"
  },
  {
    "binder": "DOM16-39-109 (other) VL: DIQMTQSPTSLSASVGDRVTITCRASQWIGNLLDWYQQKPGEAPKLLIYYASFLQSGVPSRFSGGGFGTDFTLTISSLQPEDFATYYCQQANPAPLTFGQGTKVEIKR",
    "pIC50": "8.83 to 9.13"
  }
]

Proceed to the following item.
The value of pIC50 measured for the binder DOM16-39-107 (other) VL: DIQMTQSPSSLSASVGDRVTITCRASQWIGILVDWYQQKPGEAPKLLIYYASFLQSGVPSRFSGSGSGTDFTLTISSLQPEDFATYYCQQANPAPLTFGQGTKVEIKR turned out to be 8.38 to 8.83
